system: A549; experiment: Euclidean distance of Cell Painting phenotypic profile (signed KS, 77 features) to DMSO centroid (dimensionless distance); 5 or 10 uM (library dependent); higher = stronger phenotypic change vs DMSO (phenoactivity); conditions: 48 h
Counter-ions that a name gives are not always drawn.
# Euclidean distance listing for each entry below

Solved cases below.
Task: What reported Euclidean distance corresponds to CCOc1cc2ncc(C#N)c(Nc3ccc(F)c(Cl)c3)c2cc1NC(=O)/C=C/CN(C)C [Pelitinib (EKB-569)] on A549?
Result: 3.19

Task: Quick check: Euclidean distance on A549, item CCCCC(=O)O[C@]1(C(=O)CO)[C@@H](C)C[C@H]2[C@@H]3CCC4=CC(=O)C=C[C@]4(C)[C@@]3(F)[C@@H](O)C[C@@]21C [Betamethasone Valerate] ?
Result: 1.98

Task: Entry CCCCc1oc2ccccc2c1C(=O)c1cc(I)c(OCCN(CC)CC)c(I)c1 [Amiodarone HCl] , system A549: what Euclidean distance was measured?
Result: 1.84

Task: Lab request: please report Euclidean distance under test system A549 for CCCN(CCc1cccs1)[C@H]1CCc2c(O)cccc2C1 [Rotigotine]
Result: 0.896

Task: Can you look up Euclidean distance on A549 for CCOc1cc(N)c([N+](=O)[O-])cc1C(=O)NC1CCN(CC2CC=CCC2)CC1 (configuration not stated) [Cinitapride Hydrogen Tartrate] ?
Result: 1.05

Task: I'm curious: which Euclidean distance was measured for Cn1cc(CNCC2CCN(c3ncc(C(=O)NO)cn3)CC2)c2ccccc21 tested on A549?
Result: 4.19

As a next step, examine the compound that follows.
Task: Reported Euclidean distance for A549, given C=C(C)[C@@H]1CC[C@]2(C(=O)O)CC[C@]3(C)[C@H](CC[C@@H]4[C@@]5(C)CC[C@H](O)C(C)(C)[C@@H]5CC[C@]43C)[C@@H]12 [Betulinic acid] ?
Result: 0.893
